biological target: Mineralocorticoid receptor (Homo sapiens); test: Displacement of [3H]-cortisol from MR overexpressed in human 293 cells measured after 2 hrs by Microbeta scintillation counting method; type: cell-based
Sequence (P08235 whole entry): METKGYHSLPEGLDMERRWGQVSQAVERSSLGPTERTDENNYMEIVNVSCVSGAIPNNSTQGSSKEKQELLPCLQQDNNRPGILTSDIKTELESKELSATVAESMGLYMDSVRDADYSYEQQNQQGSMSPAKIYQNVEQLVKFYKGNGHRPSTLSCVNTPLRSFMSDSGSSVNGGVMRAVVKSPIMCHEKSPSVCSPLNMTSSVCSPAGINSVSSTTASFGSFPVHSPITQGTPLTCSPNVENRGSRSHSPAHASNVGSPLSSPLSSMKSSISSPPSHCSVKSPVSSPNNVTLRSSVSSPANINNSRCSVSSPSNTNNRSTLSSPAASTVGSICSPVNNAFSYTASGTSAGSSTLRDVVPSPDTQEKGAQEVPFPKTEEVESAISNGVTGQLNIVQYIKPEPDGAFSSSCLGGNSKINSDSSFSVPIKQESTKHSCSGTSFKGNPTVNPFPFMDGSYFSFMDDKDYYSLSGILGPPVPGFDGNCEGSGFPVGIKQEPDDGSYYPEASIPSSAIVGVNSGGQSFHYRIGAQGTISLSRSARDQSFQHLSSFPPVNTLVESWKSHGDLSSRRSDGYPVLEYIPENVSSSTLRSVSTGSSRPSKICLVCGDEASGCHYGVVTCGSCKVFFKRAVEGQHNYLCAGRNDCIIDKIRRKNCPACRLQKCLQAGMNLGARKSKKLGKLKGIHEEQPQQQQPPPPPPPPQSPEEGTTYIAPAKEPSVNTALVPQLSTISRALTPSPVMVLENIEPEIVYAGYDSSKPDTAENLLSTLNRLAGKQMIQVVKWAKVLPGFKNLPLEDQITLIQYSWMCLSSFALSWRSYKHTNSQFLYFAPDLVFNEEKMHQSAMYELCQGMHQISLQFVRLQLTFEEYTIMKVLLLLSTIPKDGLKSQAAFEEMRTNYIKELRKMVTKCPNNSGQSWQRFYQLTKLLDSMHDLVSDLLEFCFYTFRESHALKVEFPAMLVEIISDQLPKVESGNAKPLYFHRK
readoutType: Ki (nM)
Kindly provide the numeric value in nM only, without the unit symbol.

For record `O=c1[nH]c2cc(/C=C3\c4ccccc4COc4cc(F)ccc43)ccc2n1[C@@H]1C[C@@H]2COCCN2C1` the listed Ki is 9

====

Catalogue of pKi values
molecular target: Mineralocorticoid receptor (Homo sapiens); test: Displacement of [3H]-Aldosterone from MR overexpressed in human 293 cells measured after 2 hrs by Microbeta scintillation counting method; type: cell-based
pKi: −log10 of the molar value.

Please review the following examples before continuing.
N#C/N=c1\[nH]c2cc(/C=C3/c4ccc(F)cc4OCc4c(F)cccc43)ccc2n1[C@@H]1C[C@H]2COCCN2C1    ≥ 8.00
N#C/N=c1/[nH]c2cc(/C=C3/c4ccc(F)cc4OCc4c(F)cccc43)ccc2n1[C@@H]1C[C@@H]2COCCN2C1    ≥ 8.00
NC(=O)/N=c1/[nH]c2cc(/C=C3\c4ccccc4COc4cc(F)ccc43)ccc2n1[C@H]1C[C@@H]2COCCN2C1    ≥ 8.00
C[C@@H](CN1CCOCC1)n1/c(=N/C#N)[nH]c2cc(/C=C3/c4ccc(F)cc4OCc4c(F)cccc43)ccc21    ≥ 8.00
N#C/N=c1/[nH]c2cc(/C=C3/c4ccc(F)cc4OCc4c(F)cccc43)ccc2n1[C@H]1C[C@H]2COCCN2C1    ≥ 8.00

For record `CN1C[C@H](O)[C@@H](n2/c(=N/C#N)[nH]c3cc(/C=C4\c5ccccc5COc5cc(F)ccc54)ccc32)C1` the listed pKi is ≥ 8.00

For record `C[C@@H](CN1CCOCC1)n1/c(=N/C#N)[nH]c2cc(/C=C3\c4ccc(F)cc4COc4cc(F)ccc43)ccc21` the listed pKi is ≥ 8.00

For record `C[C@@H](CN1CCOCC1)n1/c(=N/C#N)[nH]c2cc(/C=C3\c4ccccc4COc4cc(F)ccc43)ccc21` the listed pKi is ≥ 8.00

For record `N#C/N=c1/[nH]c2cc(/C=C3/c4ccc(F)cc4OCc4c(F)cccc43)ccc2n1[C@H]1C[C@@H]2COCCN2C1` the listed pKi is 9.64

For record `CN1CCN(n2/c(=N\C#N)[nH]c3cc(/C=C4\c5ccccc5COc5cc(F)ccc54)ccc32)CC1` the listed pKi is 10.10
